- measurement-description: in vitro
- run-conditions: human
yes if CC50 at 3 days is below 50 µM. no if not; exact matches included in no.

// known answers, use as guide
compound | qualitative-label
CC(=O)OC/C(=C\CP(=O)(OCOC(=O)OC(C)C)OCOC(=O)OC(C)C)COc1cc(N)nc(N)n1 [Compound (6)] | yes
CC(=O)OCC(=CCP(=O)(OCOC(=O)C(C)(C)C)OCOC(=O)C(C)(C)C)COc1cc(N)nc(N)n1 (mixture of isomers) [Compound (4)] | yes

Answer whether the compound CC(C)(C)C(=O)OCOP(=O)(C/C=C/COc1cc(N)nc(N)n1)OCOC(=O)C(C)(C)C [Compound (1)] has CC50 at 3 days strictly less than 50 µM
yes

Answer whether the compound CC(C)(C)C(=O)OCOP(=O)(CCCCOc1cc(N)nc(N)n1)OCOC(=O)C(C)(C)C [Compound (12)] has CC50 at 3 days strictly less than 50 µM
no

Answer whether the compound CC(C)OC(=O)OCOP(=O)(C/C=C/COc1cc(N)nc(N)n1)OCOC(=O)OC(C)C [Compound (3)] has CC50 at 3 days strictly less than 50 µM
no

====

- Tested on: HSV-2 (G)
- measurement-description: microbe, parasite or virus in culture
- Type: cell-based, herpes simplex virus 2
- run-conditions: Human alphaherpesvirus 2, HEL, read-out: EC50 HSV-2 (G)
property-name: pEC50
Answers are plain numbers, as −log10 of the molar value.

For the 3 molecules below, give their pEC50 values.
1. Nc1ccn(C[C@@H](CO)OCP(=O)(O)O)c(=O)n1 [Cidofovir, reference compound]
2. CC(=O)OC/C(=C\CP(=O)(OCOC(=O)OC(C)C)OCOC(=O)OC(C)C)COc1cc(N)nc(N)n1
3. Nc1nc(O)c2ncn(COC(CO)CO)c2n1 [Ganciclovir, reference compound]

1. 6.00
2. 6.46
3. 7.22

====

- measurement-description: in vitro
- run-conditions: human
property-name: CC50 (µM)
Numbers only, in µM.

compound | experimental-result
Nc1nc2c(ncn2COCCO)c(=O)[nH]1 [Acyclovir, reference compound] | 134

Could you now look at the following compound, please?
State its CC50 for this compound: O=c1[nH]c(=O)n([C@H]2C[C@H](O)[C@@H](CO)O2)cc1/C=C/Br [Brivudine, reference compound]
339

====

- System: human cytomegalovirus (HCMV) (AD-169)
- measurement-description: microbe, parasite or virus in culture
- Type: cell-based
- run-conditions: Human betaherpesvirus 5, AD169, HEL, read-out: EC50 HCMV (AD-169)
property-name: EC50

compound | experimental-result
CC(C)(C)C(=O)OCOP(=O)(/C=C/COc1cc(N)nc(N)n1)OCOC(=O)C(C)(C)C [Compound (9)] | > 100 µM
CC(C)(C)C(=O)OCOP(=O)(CC/C=C/COc1cc(N)nc(N)n1)OCOC(=O)C(C)(C)C [Compound (10)] | > 100 µM
C/C(=C\CP(=O)(OCOC(=O)C(C)(C)C)OCOC(=O)C(C)(C)C)COc1cc(N)nc(N)n1 [Compound (11)] | > 100 µM

Could you now look at the following compound, please?
State its EC50 for this compound: CC(=O)OC/C(=C\CP(=O)(OCOC(=O)OC(C)C)OCOC(=O)OC(C)C)COc1cc(N)nc(N)n1 [Compound (6)]
> 20 µM
